Below, each entry is listed with its recorded Plant response rating (0 to 100 scale), Blackgrass.
- Test system: blackgrass (Alopecurus myosuroides)
- experiment_description: Test C postemergence, blackgrass
- Format: in vivo
- measurement_context: 125 g ai/ha Postemergence; 0 is no effect, 100 is complete control
Kindly provide the number alone.

CC(=O)N(c1cc(N2CCC(OC3CC3)C2=O)c(C)cc1C)S(=O)(=O)C(F)(F)F (stereo not drawn) | 80
CCO/N=C1\CCN(c2cc(NS(=O)(=O)C(F)(F)F)c(C)cc2C)C1=O | 100

Switching to the query record.
# input compound: Cc1cc(C)c(N2CCC(OC3COC3)C2=O)cc1NS(=O)(=O)C(F)(F)F (stereo not drawn) ; wanted: its Plant response rating (0 to 100 scale), Blackgrass 60
